Where do the numbers come from? From patent EP4610269A1.

Biological target: uPAR-expressing HEC-265 human endometrial adenocarcinoma cells (Homo sapiens, UniProt Q03405)
Sequence (Q03405 23-335): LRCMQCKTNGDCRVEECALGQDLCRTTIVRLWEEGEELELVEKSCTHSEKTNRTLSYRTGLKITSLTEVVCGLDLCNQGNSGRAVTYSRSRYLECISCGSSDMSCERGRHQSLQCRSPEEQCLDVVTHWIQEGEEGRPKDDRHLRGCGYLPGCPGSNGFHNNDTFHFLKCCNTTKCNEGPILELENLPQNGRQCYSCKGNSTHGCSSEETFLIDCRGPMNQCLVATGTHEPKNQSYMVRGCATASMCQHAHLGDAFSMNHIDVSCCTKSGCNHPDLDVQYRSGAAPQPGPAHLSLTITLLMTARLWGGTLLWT
Where a SMILES comes first, the peptide text is derived from it. Bridges are numbered along the chain shown (N, C = ends). [ ]: non-standard residue; d: D form. The star is where a group is joined. DOTA = O=C(O)CN1CCN(CC(=O)O)CCN(CC(=O)*)CCN(CC(=O)O)CC1; Hyp = O=C(O)[C@@H]1C[C@@H](O)CN1; Nva = CCC[C@H](N)C(=O)O; Pentanoyl = CCCCC(=O)*
In this section, each of the molecules is paired with its reported IC50.

1) CCC[C@@H]1NC(=O)[C@H]([C@@H](C)CC)NC(=O)[C@@H]2C[C@@H](O)CN2C(=O)[C@@H]2CCCN2C(=O)[C@H](Cc2ccccc2)NC(=O)[C@H](Cc2ccc(O)cc2)NC(=O)[C@H](CCC(N)=O)NC(=O)[C@H](CCCNC(=N)N)NC(=O)[C@@H](NC(=O)[C@H](Cc2ccccc2)NC(=O)CN2CCN(CC(=O)O)CCN(CC(=O)O)CCN(CC(=O)O)CC2)CSSC[C@@H](C(N)=O)NC1=O [UPAR-223] ({DOTA}-FCRQYFP[Hyp]I[Nva]C-NH2; disulfide 2-11)
39.8 to 100 nM

# evaluate next
Incoming: # query: IC50 of entry CCCCC(=O)N[C@H]1CSSC[C@@H](C(N)=O)NC(=O)[C@H](CCC)NC(=O)[C@H]([C@@H](C)CC)NC(=O)[C@@H](CCC(=O)O)NC(=O)[C@@H]2CCCN2C(=O)[C@H](Cc2ccccc2)NC(=O)[C@H](Cc2ccc(O)cc2)NC(=O)[C@H](CCC(N)=O)NC(=O)[C@H](CCCNC(=N)N)NC1=O [UPAR-436] (Pentanoyl-CRQYFP[dE]I[Nva]C-NH2; disulfide 1-10)
Outgoing: 12.6 to 31.6 nM

====

Target: human uPAR (uPAR-Fc) (Homo sapiens)
Construct: comprising amino acids Leu23-Arg303 according to UniProt entry Q03405.1; purchased R&D Systems 10378-UK-100
Sequence (Q03405 23-303): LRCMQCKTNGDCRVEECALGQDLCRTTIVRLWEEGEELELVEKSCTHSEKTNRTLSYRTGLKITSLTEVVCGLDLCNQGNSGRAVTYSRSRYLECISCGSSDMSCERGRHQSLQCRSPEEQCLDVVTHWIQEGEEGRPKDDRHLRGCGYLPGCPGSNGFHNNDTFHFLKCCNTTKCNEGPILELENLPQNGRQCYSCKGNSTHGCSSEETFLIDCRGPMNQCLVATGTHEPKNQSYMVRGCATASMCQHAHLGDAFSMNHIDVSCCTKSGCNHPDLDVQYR
Test: Surface plasmon resonance (SPR) assay, single cycle kinetics
Type: binding
Settings: pKD category for uPAR SPR activity assay; uPAR-Fc on Protein A-Chip, 25°C; read-out: pKD CAT (converted)
Where a SMILES comes first, the peptide text is derived from it. Bridges are numbered along the chain shown (N, C = ends). [ ]: non-standard residue; d: D form. The star is where a group is joined. DOTA = O=C(O)CN1CCN(CC(=O)O)CCN(CC(=O)*)CCN(CC(=O)O)CC1; Hyp = O=C(O)[C@@H]1C[C@@H](O)CN1; 3Pal = N[C@@H](Cc1cccnc1)C(=O)O; Cit = NC(=O)NCCC[C@H](N)C(=O)O; NMeOrn = CN[C@@H](CCCN)C(=O)O; Nva = CCC[C@H](N)C(=O)O; Pentanoyl = CCCCC(=O)*
Reported Kd values follow for various compounds

1. CCCCC(=O)N[C@H]1CSSC[C@@H](C(N)=O)NC(=O)[C@H](CCC)NC(=O)[C@H]([C@@H](C)CC)NC(=O)[C@@H]2C[C@@H](O)CN2C(=O)[C@@H]2CCCN2C(=O)[C@H](Cc2ccccc2)NC(=O)[C@H](Cc2cccnc2)NC(=O)[C@H](CCCCNC(=O)CN2CCN(CC(=O)O)CCN(CC(=O)O)CCN(CC(=O)O)CC2)NC(=O)[C@H](CCCNC(N)=O)NC1=O [UPAR-138] (Pentanoyl-C[Cit]K(DOTA)[3Pal]FP[Hyp]I[Nva]C-NH2; disulfide 1-10)
< 1.58 nM

Shift focus to the following entry.
Incoming: Record request: Kd value, item CCCCC(=O)N[C@H]1CSSC[C@@H](C(N)=O)NC(=O)[C@H](CCC)NC(=O)[C@H]([C@@H](C)CC)NC(=O)[C@H](CCCN)N(C)C(=O)[C@@H]2CCCN2C(=O)[C@H](Cc2ccccc2)NC(=O)[C@H](Cc2ccc(O)cc2)NC(=O)[C@H](CCCCNC(=O)CN2CCN(CC(=O)O)CCN(CC(=O)O)CCN(CC(=O)O)CC2)NC(=O)[C@H](CCCNC(N)=O)NC1=O [UPAR-265] (Pentanoyl-C[Cit]K(DOTA)YFP[NMeOrn]I[Nva]C-NH2; disulfide 1-10)
Outgoing: > 100 nM
